test system: 425362-245-T-J1 tumor spheroids, viability % test/control; experiment: Anticancer human tumor 425362-245-T-J1 patient-derived melanoma cell line growth inhibition; conditions: second compound 0.003 µM; first compound 0.316 µM; spheroids with HUVEC and MSC; active means viability on the fitted dose curve at most 10% of control; inactive means the rest;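 further: spheroids exposed to agents for 7 days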
Classes used: active, inactive

molecule	group-label
Cc1cc(C)c(CNC(=O)c2cc(-c3ccc(CN4CCOCC4)cc3)cc3c2cnn3C2CCCC2)c(=O)[nH]1 + COc1cc2c(cc1O)CCNC21CSC2c3c(OC(C)=O)c(C)c4c(c3C(COC1=O)N1C(O)C3Cc5cc(C)c(OC)c(O)c5C(C21)N3C)OCO4	active
COc1ccc([C@@H](O)c2cc(-c3ncnc4cc(N5CCOCC5)ccc34)c(F)cc2Cl)nn1 + CC[C@@]1(O)C(=O)OCc2c1cc1n(c2=O)Cc2cc3c(CN(C)C)c(O)ccc3nc2-1	inactive
COc1cc(C)[nH]c(=O)c1CN1CCc2c(Cl)cc(C(OC)C3COC3)c(Cl)c2C1=O (configuration not stated) + COc1cc2c(cc1O)CCNC21CSC2c3c(OC(C)=O)c(C)c4c(c3C(COC1=O)N1C(O)C3Cc5cc(C)c(OC)c(O)c5C(C21)N3C)OCO4	active
COc1cc(C)[nH]c(=O)c1CN1CCc2c(Cl)cc(C(OC)C3COC3)c(Cl)c2C1=O (configuration not stated) + CC[C@@]1(O)C(=O)OCc2c1cc1n(c2=O)Cc2cc3c(CN(C)C)c(O)ccc3nc2-1	inactive
CC1COCCN1c1cc(-c2ccnn2C)c2ccnc(-c3ccn[nH]3)c2n1 (configuration not stated) + CC[C@@]1(O)C(=O)OCc2c1cc1n(c2=O)Cc2cc3c(CN(C)C)c(O)ccc3nc2-1	active
CC(C)n1c(=O)n(C)c2cnc3cc(F)c(-c4ccc(OCCCN5CCCCC5)nc4)cc3c21 + COc1cc2c(cc1O)CCNC21CSC2c3c(OC(C)=O)c(C)c4c(c3C(COC1=O)N1C(O)C3Cc5cc(C)c(OC)c(O)c5C(C21)N3C)OCO4	active
Cc1cc(C)c(CNC(=O)c2cc(-c3ccc(CN4CCOCC4)cc3)cc3c2cnn3C2CCCC2)c(=O)[nH]1 + CC[C@@]1(O)C(=O)OCc2c1cc1n(c2=O)Cc2cc3c(CN(C)C)c(O)ccc3nc2-1	inactive
COc1ccc([C@@H](O)c2cc(-c3ncnc4cc(N5CCOCC5)ccc34)c(F)cc2Cl)nn1 + COc1cc2c(cc1O)CCNC21CSC2c3c(OC(C)=O)c(C)c4c(c3C(COC1=O)N1C(O)C3Cc5cc(C)c(OC)c(O)c5C(C21)N3C)OCO4	active
CC(C)n1c(=O)n(C)c2cnc3cc(F)c(-c4ccc(OCCCN5CCCCC5)nc4)cc3c21 + CC[C@@]1(O)C(=O)OCc2c1cc1n(c2=O)Cc2cc3c(CN(C)C)c(O)ccc3nc2-1	active
[2H]c1nc(C)nc([2H])c1-c1cc(NC[C@@H](C)c2cccc3c(C(=O)NC)ccnc23)ncn1 + COc1cc2c(cc1O)CCNC21CSC2c3c(OC(C)=O)c(C)c4c(c3C(COC1=O)N1C(O)C3Cc5cc(C)c(OC)c(O)c5C(C21)N3C)OCO4	active
[2H]c1nc(C)nc([2H])c1-c1cc(NC[C@@H](C)c2cccc3c(C(=O)NC)ccnc23)ncn1 + CC[C@@]1(O)C(=O)OCc2c1cc1n(c2=O)Cc2cc3c(CN(C)C)c(O)ccc3nc2-1	inactive
CC1COCCN1c1cc(-c2ccnn2C)c2ccnc(-c3ccn[nH]3)c2n1 (configuration not stated) + COc1cc2c(cc1O)CCNC21CSC2c3c(OC(C)=O)c(C)c4c(c3C(COC1=O)N1C(O)C3Cc5cc(C)c(OC)c(O)c5C(C21)N3C)OCO4	active
